Tested on: IGR37-GP cells (Dabrafenib-resistant)
Assay: Kinase inhibitor library screening, PrestoBlue cell viability, 1 or 10 μM, 72 h
Conditions: IGR37 GP; 1μΜ; 72 h; in %
cell viability, IGR37 GP, 1μΜ listing for selected compounds.
measureName: cell viability, IGR37 GP, 1μΜ

INSERT INTO results (compound, system, observed) VALUES
  ('C=CC(=O)Nc1cc2c(Nc3ccc(F)c(Cl)c3)ncnc2cc1OCCCN1CCOCC1', 'IGR37-GP cells (Dabrafenib-resistant)', 92.4),
  ('CC(=O)Nc1cccc(-n2c(=O)n(C3CC3)c(=O)c3c(Nc4ccc(I)cc4F)n(C)c(=O)c(C)c32)c1', 'IGR37-GP cells (Dabrafenib-resistant)', 89.3),
  ('C#Cc1cccc(Nc2ncnc3cc(OCCOC)c(OCCO)cc23)c1 [Desmethyl Erlotinib (CP-473420)]', 'IGR37-GP cells (Dabrafenib-resistant)', 85.7),
  ('C[C@@H]1CCN(C(=O)CC#N)C[C@@H]1N(C)c1ncnc2[nH]ccc12', 'IGR37-GP cells (Dabrafenib-resistant)', 97.9),
  ('CC(O)C(=O)O.CC(O)C(=O)O.CN1CCN(c2ccc3nc(-c4c(N)c5c(F)cccc5[nH]c4=O)[nH]c3c2)CC1', 'IGR37-GP cells (Dabrafenib-resistant)', 106.1),
  ('CCC[C@H](NC(=O)/C(C#N)=C/c1cccc(Br)n1)c1ccccc1 [WP1130, reference compound]', 'IGR37-GP cells (Dabrafenib-resistant)', 96.2),
  ('C=CC(=O)Nc1cccc(Oc2nc(Nc3ccc(N4CCN(C)CC4)cc3)ncc2Cl)c1', 'IGR37-GP cells (Dabrafenib-resistant)', 92.8);

###

System: IGR37-XP cells (Vemurafenib-resistant)
Assay: Kinase inhibitor library screening, PrestoBlue cell viability, 1 or 10 μM, 72 h
Conditions: Homo sapiens, IGR-37, 72 h, read-out: cell viability, IGR37 XP, 1μΜ
viability at 1 µM listing for selected molecules.
measureName: viability at 1 µM (%)

INSERT INTO measurements (molecule, observed) VALUES
  ('Oc1c2ccccc2c2c3c(cccc13)N=N2', 96.5),
  ('Cc1cc(Nc2cc(CN3CCOCC3)c3nc(C)c(Cc4ccc(Cl)cc4F)n3n2)n[nH]1', 91.6),
  ('O=C(Nc1cc(C(F)(F)F)cc(C(F)(F)F)c1)c1cc(Cl)ccc1O [IMD 0354, reference compound]', 41.2),
  ('CCN(CC)CCCCNc1ncc2cc(-c3cc(OC)cc(OC)c3)c(NC(=O)NC(C)(C)C)nc2n1', 92.2),
  ('C=CC(=O)Nc1ccc2ncnc(Nc3ccc(OCc4cccc(F)c4)c(Cl)c3)c2c1', 72.8),
  ('N#CC[C@H](C1CCCC1)n1cc(-c2ncnc3[nH]ccc23)cn1', 103),
  ('O=C(c1ccc(/C=C/c2n[nH]c3ccccc23)cc1)N1CCNCC1', 104),
  ('COCC(=O)NC/C=C/c1ccc2ncnc(Nc3ccc(Oc4ccc(C)nc4)c(C)c3)c2c1', 89.5),
  ('Cn1cc(C2=C(c3ccc(Cl)cc3Cl)C(=O)NC2=O)c2ccccc21', 111);

###

System: A375-XP cells (Vemurafenib-resistant)
Assay: Kinase inhibitor library screening, PrestoBlue cell viability, 1 or 10 μM, 72 h
Conditions: A375 XP; 10μΜ; 72 h
Description: After 72 h of treatment, cell viability was assessed using the PrestoBlue Cell Viability Reagent (ThermoFisher Scientific). Measurements were performed with the CLARIOstar Monochromator microplate reader (BMG Labtech). Kinase inhibitor library screening. […] Drugs were added at 2 different concentrations, 1 and 10 μM, for 72 h and cell viability was assessed using the PrestoBlue Cell Viability assay. […] Each cell line was analyzed at least in duplicate. […]
cell viability (kinase inhibitor library screening) listing for selected compounds.
measureName: cell viability (kinase inhibitor library screening) (%)

INSERT INTO results (compound, observed) VALUES
  ('COc1cc(Nc2ncc3c(n2)-c2ccc(Cl)cc2C(c2c(F)cccc2OC)=NC3)ccc1C(=O)O [MLN8237 (Alisertib)]', 50.5),
  ('C[C@@H](Oc1cc(-c2cnn(C3CCNCC3)c2)cnc1N)c1c(Cl)ccc(F)c1Cl [Crizotinib (PF-02341066)]', 17.2),
  ('Cc1cn(-c2cc(NC(=O)c3ccc(C)c(Nc4nccc(-c5cccnc5)n4)c3)cc(C(F)(F)F)c2)cn1 [Nilotinib (AMN-107)]', 57.9),
  ('CNC(=O)c1nn(C)c2c1C(C)(C)Cc1cnc(Nc3ccc(N4CCN(C)CC4)cc3)nc1-2 [PHA-848125]', 7.5),
  ('O=c1[nH]c2ccc(Cl)cc2c(N[C@@H]2CN3CCC2CC3)c1-c1nc2ccccc2[nH]1 [CHIR-124, reference compound]', 1.5),
  ('CNC(=O)c1cc(Oc2ccc(NC(=O)Nc3ccc(Cl)c(C(F)(F)F)c3)c(F)c2)ccn1 [Regorafenib (BAY 73-4506)]', 18.1),
  ('COc1ccc2c(Oc3ccc(NC(=O)c4c(C)n(CC(C)(C)O)n(-c5ccccc5)c4=O)nc3)ccnc2c1 [AMG458]', 96.2),
  ('CC(C)c1cnn2c(NCc3ccccc3)cc(NCCCCCCN)nc12.Cl [BS-181 HCl]', 92.4),
  ('Cc1cc(Nc2cc(N3CCN(C)CC3)nc(Sc3ccc(NC(=O)C4CC4)cc3)n2)n[nH]1 [VX-680 (MK-0457, Tozasertib)]', 35.5),
  ('CC(C)NC[C@@H](C(=O)N1CCN(c2ncnc3c2[C@H](C)C[C@H]3O)CC1)c1ccc(Cl)cc1 [GDC-0068]', 85.5),
  ('OCCn1cc(-c2cnc3nnn(Cc4ccc5ncccc5c4)c3n2)cn1 [PF-04217903]', 110.9),
  ('Clc1ccc(C2(c3ccc(-c4cn[nH]c4)cc3)CCNCC2)cc1 [AT7867]', 63.1),
  ('CCc1cc2c(cc1N1CCC(N3CCOCC3)CC1)C(C)(C)c1[nH]c3cc(C#N)ccc3c1C2=O [CH5424802]', 75.8);

###

System: A375-GP cells (Dabrafenib-resistant)
Test: Kinase inhibitor library screening, PrestoBlue cell viability, 1 or 10 μM, 72 h
Conditions: A375 GP, 1μΜ, 72 h; in %
measureName: cell viability, A375 GP, 1μΜ

INSERT INTO results (molecule, system, measurename, observed) VALUES
  ('CN(C)Cc1cccc(N/C(=C2\C(=O)Nc3cc(C(=O)N(C)C)ccc32)c2ccccc2)c1 [BIX 02189]', 'A375-GP cells (Dabrafenib-resistant)', 'cell viability, A375 GP, 1μΜ', 99.5),
  ('COc1cccc(-c2cc(=O)c3ccccc3o2)c1N [PD98059]', 'A375-GP cells (Dabrafenib-resistant)', 'cell viability, A375 GP, 1μΜ', 95.5),
  ('CNC(=O)c1c(F)cccc1Nc1nc(Nc2cc3c(cc2OC)CCN3C(=O)CN(C)C)nc2[nH]ccc12 [GSK1838705A, reference compound]', 'A375-GP cells (Dabrafenib-resistant)', 'cell viability, A375 GP, 1μΜ', 67.8),
  ('Nc1ncnc2c1c(-c1cccc(OCc3ccccc3)c1)cn2C1CC(CN2CCCC2)C1 (stereo not drawn) [NVP-ADW742]', 'A375-GP cells (Dabrafenib-resistant)', 'cell viability, A375 GP, 1μΜ', 57.9),
  ('COc1cc2ncnc(Nc3ccc(F)c(Cl)c3)c2cc1NC(=O)/C=C/CN1CCCCC1 [Dacomitinib (PF299804,PF-00299804)]', 'A375-GP cells (Dabrafenib-resistant)', 'cell viability, A375 GP, 1μΜ', 97.2),
  ('CN1CCN(c2ccc3nc(-c4c(N)c5c(F)cccc5[nH]c4=O)[nH]c3c2)CC1 [Dovitinib (TKI-258)]', 'A375-GP cells (Dabrafenib-resistant)', 'cell viability, A375 GP, 1μΜ', 93.5),
  ('O=C(NOCC1CC1)c1ccc(F)c(F)c1Nc1ccc(I)cc1Cl [CI-1040 (PD184352)]', 'A375-GP cells (Dabrafenib-resistant)', 'cell viability, A375 GP, 1μΜ', 35.2),
  ('C[C@@H]1CCN(C(=O)CC#N)C[C@@H]1N(C)c1ncnc2[nH]ccc12.O=C(O)CC(O)(CC(=O)O)C(=O)O [Tofacitinib citrate (CP-690550 citrate)]', 'A375-GP cells (Dabrafenib-resistant)', 'cell viability, A375 GP, 1μΜ', 103.6),
  ('C[C@@H]1CCN(C(=O)CC#N)C[C@@H]1N(C)c1ncnc2[nH]ccc12 [Tofacitinib (CP-690550, Tasocitinib)]', 'A375-GP cells (Dabrafenib-resistant)', 'cell viability, A375 GP, 1μΜ', 103.9);

###

IC50 listing for selected compounds.
System: A375 cells (parental)
Test: Dose-response curves and IC50, PrestoBlue cell viability, 72 h
Type: cell-based, human
Details: n.e. = did not suppress growth below 50% in the tested concentration range, read-out: Half-maximal inhibitory concentration value (IC50), Mean
measureName: IC50 (nM)

INSERT INTO measurements (compound, measurename, observed) VALUES
  ('Cc1ccc(C(=O)Nc2cccc(C(F)(F)F)c2)cc1Nc1nc(-c2cccnc2)nc2c1cnn2C [NVP-BHG712, reference compound]', 'IC50', 4420),
  ('CCC[C@H](NC(=O)/C(C#N)=C/c1cccc(Br)n1)c1ccccc1 [WP1130, reference compound]', 'IC50', 1620),
  ('Nc1cc(C(F)(F)F)c(-c2cc(N3CCOCC3)nc(N3CCOCC3)n2)cn1 [BKM120]', 'IC50', 951),
  ('CNC(=O)c1ccccc1Nc1nc(Nc2ccc(N3CCOCC3)cc2OC)ncc1Cl [TAE226]', 'IC50', 489);

The measured values listed here are drawn from paper PMC6364417.
